# Test system: KM12 colon
# assay summary: NCI-60 one-dose screen, 48 h
# assay conditions: 10 µM unless noted
# Procedure: Growth inhibition of the KM12 human tumor cell line is measured as a screen for anti-cancer activity. Cells are grown in 96 well plates and exposed to the test compound for 48 hours. Compounds are tested at a single concentration, which is 10^-5 M for most compounds. The reported endpoint is percent growth (GI% or GIPRCNT), where numbers from 0 - 100% represent growth inhibition, and numbers from -100% - 0 represent cell death. For example, a value of 40 represents 60% growth inhibition. […]
About 83,000 compounds went through this panel and 20% of them were active in at least one assay; those are over-represented in the sample as a whole. Calls of active or inactive are those of the source. How the source made its calls: active means growth percent below 10; inactive means the rest.
Outcomes: T (active), F (inactive)

{"compound": "Cc1cc(=O)oc2cc(OC(=O)N3CCN(C)CC3)ccc12", "class label": "F"}
{"compound": "C#Cc1cccc(NC(=O)Nc2ccccc2NC(=O)CCl)c1", "class label": "T"}
{"compound": "C=C(C)[C@@H]1CC[C@]2(N=C=O)CC[C@]3(C)[C@H](CC[C@@H]4[C@@]5(C)Cc6c([nH]c7ccccc67)C(C)(C)[C@@H]5CC[C@]43C)[C@@H]12", "class label": "F"}
{"compound": "COc1ccc2c(c1)C(C)Cc1c(ncnc1-n1c(C)nc3ccccc31)N2C (stereo unspecified)", "class label": "F"}
{"compound": "Cc1[nH]c(C(=O)Nc2ccc(C(=O)N3CCNCC3)cc2OC(C)C)c(Cl)c1Cl", "class label": "F"}
{"compound": "O=c1n(Cc2ccc3ccccc3c2)ccn1Cc1ccc2ccccc2c1", "class label": "F"}

----------
# Tested on: NCI-H460 lung
# assay summary: NCI-60 one-dose screen, 48 h (100 = growth as untreated, 0 = no growth, -100 = all killed)
# assay conditions: 10 µM unless noted
Compounds without any hit were thinned out: in the full panel of roughly 83,000, 20% have a hit. Active and inactive are the calls of the source. How the source made its calls: active means growth percent below 10; inactive means the rest.
Below, each entry is listed with its recorded growth.
measured parameter: growth

{"molecule": "CCOC(=O)C1=C(N)Oc2c(sc3c(C)cccc23)C1c1ccc(OC)cc1 (stereo not given)", "result": "21.9% (inactive)"}
{"molecule": "COc1ccc2c(c1)nc(NNC(=O)c1cnccn1)c1cccn12", "result": "7.94% (active)"}
{"molecule": "CCCCOc1nc2c(C)cccc2cc1-c1cc(-c2ccc(Cl)cc2)nc(-c2ccc(Cl)cc2)c1", "result": "103% (inactive)"}
{"molecule": "COc1ccc(-c2cnc3ccccc3n2)cc1", "result": "101% (inactive)"}
{"molecule": "COc1ccc(C2=Nn3c(nnc3-c3cc(Cl)cc(Cl)c3Cl)SC2)cc1", "result": "-18.9% (active)"}
{"molecule": "CN(C)c1ccc2nc3ccc(=[N+](C)C)c([N+](=O)[O-])c-3sc2c1", "result": "25.3% (inactive)"}
{"molecule": "CN(C)CCS(=O)(=O)Nc1cc(-c2ccc3ncc(C#N)c(Nc4ccc(F)c(Cl)c4)c3c2)cnc1Cl", "result": "0.906% (active)"}
{"molecule": "COc1ccc(-c2conc2-c2ccccc2)cc1", "result": "7.41% (active)"}
{"molecule": "COC(=O)c1ccc2[nH]c(O)c(C(=Nc3ccc(N(C)C(=O)CN4CCN(C)CC4)cc3)c3ccccc3)c2c1", "result": "24.9% (inactive)"}
{"molecule": "O=c1c2cc(F)ccc2sc2c(N3CCCCC3)nc3ccccc3c12", "result": "109% (inactive)"}
{"molecule": "O=c1ccn(Cc2cn(-c3c4ccccc4nc4ccccc34)nn2)c(=O)[nH]1", "result": "96.5% (inactive)"}
{"molecule": "c1ccc2cc(C[n+]3ccn(CCCCCCn4cc[n+](Cc5ccc6ccccc6c5)c4)c3)ccc2c1", "result": "24.6% (inactive)"}
{"molecule": "NS(=O)(=O)c1ccc(N=Nc2ccc(-c3nn4cc(-c5ccccc5)nc4s3)cc2)cc1", "result": "113% (inactive)"}
{"molecule": "Cc1nc2ccccc2n1CC1C(=O)NC(=O)NC1=O", "result": "111% (inactive)"}
{"molecule": "Cc1ccc(-c2cnc3sc(C(=O)NCCc4ccccc4)c(C)n23)cc1", "result": "102% (inactive)"}

Hello, the source for this data is PubChem BioAssay (NCI), in case you need it.
